Tested on: blackgrass
Assay: Test B pre/postemergence blackgrass
Type: in vivo, Alopecurus myosuroides
Settings: Preemergence, Rate 62 g/ha; scale of 0 to 10 where 0 is no effect and 10 is complete control
Exercise: state measured Plant response rating, Blackgrass for each of the molecules provided.
Answers are plain numbers.

Hey, quick one: what's Plant response rating, Blackgrass for each of these?
1. C=CCCCn1c(=O)on(C(=O)N(c2ccc(F)cc2F)C(C)C)c1=O
2. CC(C)N(C(=O)n1oc(=O)n(CCCl)c1=O)c1ccc(Cl)cc1
3. CC(C)N(C(=O)n1oc(=O)n(CC2=NOCCC2)c1=O)c1ccc(Cl)cc1

A:
3
3
0

Q: // fetch blackgrass Plant response rating, Blackgrass for CCOC(=O)CC(C(=O)OCC)n1c(=O)on(C(=O)N(c2ccc(F)cc2F)C(C)C)c1=O (stereo not shown)
A: 2

----------
Tested on: blackgrass
Assay: Test B pre/postemergence blackgrass
Type: in vivo, Alopecurus myosuroides
Settings: Rate 250 g/ha; Postemergence
Exercise: state measured Plant response rating (0 to 10; 0 is no effect, 10 is complete control), Blackgrass for each of the compounds provided.
Answers are plain numbers.

| compound | quantitative_result |
| --- | --- |
| CC(C)N(C(=O)n1oc(=O)n(CC2CC2)c1=O)c1ccc(F)cc1 | 8 |
| CC(C)N(C(=O)n1oc(=O)n(CC#C[Si](C)(C)C)c1=O)c1ccc(F)cc1 | 2 |
| CC(C)N(C(=O)n1oc(=O)n(C(C)C(=O)c2ccccc2)c1=O)c1ccc(F)cc1 (stereo not shown) | 0 |

Q: Any idea what its Plant response rating (0 to 10; 0 is no effect, 10 is complete control), Blackgrass is? The compound is Cc1ccccc1-n1c(=O)on(C(=O)N(c2ccc(Cl)cc2F)C(C)C)c1=O
A: 5

----------
Tested on: blackgrass
Assay: Test B pre/postemergence blackgrass
Type: in vivo, Alopecurus myosuroides
Conditions: Rate 500 g/ha, Postemergence; scale 0 to 10
test_readout: Blackgrass plant response rating
Answers are plain numbers.

Known results for compounds:
| compound | Blackgrass plant response rating |
| --- | --- |
| Cc1cnn(C)c1-n1c(=O)on(C(=O)N(c2ccc(F)cc2)C(C)C)c1=O | 0 |
| Cc1nc(C)c(Cn2c(=O)on(C(=O)N(c3ccc(Cl)cc3)C(C)C)c2=O)s1 | 3 |
| CC(C)Cn1c(=O)on(C(=O)N(c2ccc(F)cc2)C(C)C)c1=O | 9 |
| Cc1ccccc1-n1c(=O)on(C(=O)N(c2ccc(Cl)cc2F)C(C)C)c1=O | 6 |

Now for the compound whose Blackgrass plant response rating we want.
Q: // fetch blackgrass Blackgrass plant response rating for CC1CCCCC1n1c(=O)on(C(=O)N(c2ccc(F)cc2F)C(C)C)c1=O (centres unmarked)
A: 5

----------
Exercise: state measured Blackgrass plant response rating for each of the molecules provided.
Test system: blackgrass
Assay: Test B pre/postemergence blackgrass
Format: in vivo, Alopecurus myosuroides
Settings: Postemergence, Rate 125 g/ha; scale of 0 to 10 where 0 is no effect and 10 is complete control
Numbers only.

Known results for molecules:
| molecule | Blackgrass plant response rating |
| --- | --- |
| COC(=O)C(c1ccccc1)n1c(=O)on(C(=O)N(c2ccc(F)cc2)C(C)C)c1=O (stereo not shown) [Compound 677] | 0 |
| Cc1nn(C)c(C)c1-n1c(=O)on(C(=O)N(c2ccccc2)C(C)C)c1=O [Compound 120] | 4 |
| CCOP(=O)(OCC)C(C)n1c(=O)on(C(=O)N(c2ccc(Cl)cc2)C(C)C)c1=O (stereo not shown) [Compound 644] | 0 |

Q: Any idea what its Blackgrass plant response rating is? The molecule is Cc1cnn(C)c1-n1c(=O)on(C(=O)N(c2ccc(F)cc2)C(C)C)c1=O [Compound 125]
A: 0
